Data provenance is patent US20240287163A1.

This section presents binders with their documented Kd values.
# experimental target: T1, recombinant human C1r2s2 tetramer (human, UniProt P09871 16-688; P00736 18-705)
# T1 construct: C1s and C1r co-expressed in HEK293 and purified from the supernatant as tetramer; also called hC1r2s2
# T1 chain 1: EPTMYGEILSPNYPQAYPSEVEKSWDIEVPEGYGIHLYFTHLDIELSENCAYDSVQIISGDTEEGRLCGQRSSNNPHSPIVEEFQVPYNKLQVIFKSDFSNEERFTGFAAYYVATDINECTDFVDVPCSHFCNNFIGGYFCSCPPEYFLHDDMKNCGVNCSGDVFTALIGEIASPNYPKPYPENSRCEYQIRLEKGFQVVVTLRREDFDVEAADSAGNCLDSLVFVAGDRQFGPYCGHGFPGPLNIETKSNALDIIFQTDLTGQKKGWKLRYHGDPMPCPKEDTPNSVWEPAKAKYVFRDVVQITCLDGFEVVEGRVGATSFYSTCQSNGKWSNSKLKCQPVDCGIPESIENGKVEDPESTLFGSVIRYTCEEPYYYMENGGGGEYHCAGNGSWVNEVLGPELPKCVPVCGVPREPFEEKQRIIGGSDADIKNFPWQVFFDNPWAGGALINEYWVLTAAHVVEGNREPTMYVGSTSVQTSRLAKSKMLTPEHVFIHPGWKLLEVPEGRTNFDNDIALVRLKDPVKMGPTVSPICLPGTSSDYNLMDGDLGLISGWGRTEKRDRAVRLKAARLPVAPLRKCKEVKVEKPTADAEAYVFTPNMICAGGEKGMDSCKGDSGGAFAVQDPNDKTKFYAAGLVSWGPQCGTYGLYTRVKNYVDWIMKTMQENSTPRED
# T1 chain 2: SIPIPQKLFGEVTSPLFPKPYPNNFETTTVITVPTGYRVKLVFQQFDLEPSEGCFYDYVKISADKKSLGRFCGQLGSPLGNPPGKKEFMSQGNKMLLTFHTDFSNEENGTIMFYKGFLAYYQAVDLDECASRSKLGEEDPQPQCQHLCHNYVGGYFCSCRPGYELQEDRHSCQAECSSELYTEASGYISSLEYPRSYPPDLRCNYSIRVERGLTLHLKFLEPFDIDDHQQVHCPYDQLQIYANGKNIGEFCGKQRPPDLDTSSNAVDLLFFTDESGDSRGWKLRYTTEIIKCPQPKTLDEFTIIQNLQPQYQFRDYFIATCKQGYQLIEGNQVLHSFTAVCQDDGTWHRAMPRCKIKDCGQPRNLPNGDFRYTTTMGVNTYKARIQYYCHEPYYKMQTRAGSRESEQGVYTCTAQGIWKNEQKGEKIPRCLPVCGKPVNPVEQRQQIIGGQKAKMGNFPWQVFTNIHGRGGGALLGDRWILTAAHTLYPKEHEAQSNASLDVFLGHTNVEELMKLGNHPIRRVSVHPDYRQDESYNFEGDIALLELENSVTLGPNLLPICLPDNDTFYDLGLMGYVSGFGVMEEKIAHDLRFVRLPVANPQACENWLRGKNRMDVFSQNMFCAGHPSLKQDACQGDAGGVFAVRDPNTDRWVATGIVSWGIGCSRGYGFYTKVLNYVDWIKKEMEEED
# protocol details: SPR (Biacore T200), 37 C, pH 6.0; hC1r2s2 captured by IPN009, antibody as analyte

{"binder": "COS0637pHv16-G1A3FcgSil+LowpI (antibody, V domains shown, VH 36, VL 55, CH 45, CL 23) VH: QVQLVESGGGVVQPGRSLRLSCAASGFTFSAYTMNWIRQPPGKGLEWIGLIYGSGHEFYASWAEERVTISVDTSKNQFSLKLSSVTAADTAVYYCARGRSKNYNSDFHLWGQGTLVTVSS VL: DIQMTQSPSSLSASVGDRVTITCQAHEILHDKKNLAWYQQKPGQPPKLLIYGASQRESGVPSRFSGSGSGTDFTLTISSLQPEDFATYYCHGEFPHSSADLNHFGQGTKVEIKR", "Kd": "29.2 nM"}
{"binder": "COS0637pHv15-G1A3FcgSil+LowpI (antibody, V domains shown, VH 24, VL 59, CH 45 (G1A3FcgSil+LowpI), CL 23) VH: QVQLVESGGGVVQPGRSLRLSCAASGFTFSAYAMNWIRQPPGKGLEWIGLIYGSGHEFYASWAEERVTISVDTSKNQFSLKLSSVTAADTAVYYCARGRSKNYNSDFHLWGQGTLVTVSS VL: DIQMTQSPSSLSASVGDRVTITCQANEILHDKKNLAWYQQKPGQPPKLLIYGASTLESGVPSRFSGSGSGTDFTLTISSLQPEDFATYYCHGEFSYHSADLNTFGQGTKVEIKR", "Kd": "318 nM"}
{"binder": "COS0637pHv25-G1A3FcgSil+LowpI (antibody, V domains shown, VH 32, VL 55, CH 45, CL 23) VH: QVQLVESGGGVVQPGRSLRLSCAASGFTFSAYAMNWIRQPPGKGLEWIGLMYGSGHEFYASWAEERVTISVDTSKNQFSLKLSSVTAADTAVYYCARGRSKNYNSDFHLWGQGTLVTVSS VL: DIQMTQSPSSLSASVGDRVTITCQAHEILHDKKNLAWYQQKPGQPPKLLIYGASQRESGVPSRFSGSGSGTDFTLTISSLQPEDFATYYCHGEFPHSSADLNHFGQGTKVEIKR", "Kd": "21.3 nM"}
